Listed molecules paired with reported relative viability
- System: EPLC-272H
- measurement-notes: relative viability (nuclei count vs DMSO), 5 days (fraction); higher = more cells survive
- study-conditions: first compound 0.8 µM
experimental-readout: relative viability

>  <molecule>
COc1nc(C)cnc1NS(=O)(=O)c1cccnc1-c1ccc(-c2nnco2)cc1 [Zibotentan] + CCNC(=O)c1noc(-c2cc(C(C)C)c(O)cc2O)c1-c1ccc(CN2CCOCC2)cc1 [Luminespib] (partner 0.01 µM)

>  <quantitative-readout>
0.272

$$$$
>  <molecule>
COc1nc(C)cnc1NS(=O)(=O)c1cccnc1-c1ccc(-c2nnco2)cc1 [Zibotentan] + CC(C)C[C@H](NC(=O)[C@H](Cc1ccccc1)NC(=O)c1cnccn1)B(O)O [Bortezomib] (partner 0.002 µM)

>  <quantitative-readout>
0.843

$$$$
>  <molecule>
COc1nc(C)cnc1NS(=O)(=O)c1cccnc1-c1ccc(-c2nnco2)cc1 [Zibotentan] + CS(=O)(=O)N1CCN(Cc2cc3nc(-c4cccc5[nH]ncc45)nc(N4CCOCC4)c3s2)CC1 [Pictilisib] (partner 1 µM)

>  <quantitative-readout>
0.239

$$$$
